Tested on: 317291-083-R-J1-PDC complex spheroid growth
measurement_protocol: Anticancer human tumor 317291-083-R-J1-PDC patient-derived soft tissue sarcoma cell line growth inhibition [Asc]
condition_details: second compound 1 µM; first compound 0.00949 µM; stronger effect = lower value
The entries below come with measured viability, T/C values attached.

compound: Cc1nc(N2CCC3(CC2)COC(C)C3N)c(CO)nc1Sc1ccnc(N)c1Cl (stereo not drawn) + CNC(C)C(=O)NC1CN(S(=O)(=O)c2cccc(S(=O)(=O)N3CCC4CCC(C(=O)NC(c5ccccc5)c5ccccc5)N4C(=O)C(NC(=O)C(C)NC)C3)c2)CCC2CCC(C(=O)NC(c3ccccc3)c3ccccc3)N2C1=O
viability, T/C, %: 29.8
--
compound: CCN1C(C(=O)NC23CCC(C(=O)O)(CC2)CC3)C(c2cccc(Cl)c2F)C2(C(=O)Nc3cc(Cl)ccc32)C12CCCCC2 (stereo not drawn) + CNC(C)C(=O)NC1CN(S(=O)(=O)c2cccc(S(=O)(=O)N3CCC4CCC(C(=O)NC(c5ccccc5)c5ccccc5)N4C(=O)C(NC(=O)C(C)NC)C3)c2)CCC2CCC(C(=O)NC(c3ccccc3)c3ccccc3)N2C1=O
viability, T/C, %: 41.2
--
compound: NC(=O)C(=Cn1cnc(-c2cc(C(F)(F)F)cc(C(F)(F)F)c2)n1)c1cncnc1 + CNC(C)C(=O)NC1CN(S(=O)(=O)c2cccc(S(=O)(=O)N3CCC4CCC(C(=O)NC(c5ccccc5)c5ccccc5)N4C(=O)C(NC(=O)C(C)NC)C3)c2)CCC2CCC(C(=O)NC(c3ccccc3)c3ccccc3)N2C1=O
viability, T/C, %: 34.8

====

Test system: 317291-083-R-J1-PDC complex spheroid growth
measurement_protocol: Anticancer human tumor 317291-083-R-J1-PDC cell line growth inhibition [Asc];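 further: compound exposure lasted seven days after spheroids formed for three days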;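 on viability, T/C: 100% = DMSO vehicle control wells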
condition_details: second compound 0.1 µM; first compound 0.0949 µM; stronger effect = lower value
The entries below come with measured viability, T/C values attached.
measurement_type: viability, T/C (%)

compound: NC(=O)C(=Cn1cnc(-c2cc(C(F)(F)F)cc(C(F)(F)F)c2)n1)c1cncnc1 + Cc1c(S(C)(=O)=O)c(-c2cc(F)cc(N3CCN(c4ccc(NS(=O)(=O)c5ccc(NC(CCN6CCC(C(=O)OCCCP(=O)(O)O)CC6)CSc6ccccc6)c(S(=O)(=O)C(F)(F)F)c5)cc4)CC3)c2)c(-c2ccc(Cl)cc2)n1C(C)C
test_target: 317291-083-R-J1-PDC complex spheroid growth
measurement_type: viability, T/C
unit_tag: %
experimental_value: 4.66

compound: Cc1nc(N2CCC3(CC2)COC(C)C3N)c(CO)nc1Sc1ccnc(N)c1Cl (stereo not drawn) + CNC(C)C(=O)NC1CN(S(=O)(=O)c2cccc(S(=O)(=O)N3CCC4CCC(C(=O)NC(c5ccccc5)c5ccccc5)N4C(=O)C(NC(=O)C(C)NC)C3)c2)CCC2CCC(C(=O)NC(c3ccccc3)c3ccccc3)N2C1=O
test_target: 317291-083-R-J1-PDC complex spheroid growth
measurement_type: viability, T/C
unit_tag: %
experimental_value: 54.1

compound: CCN1C(C(=O)NC23CCC(C(=O)O)(CC2)CC3)C(c2cccc(Cl)c2F)C2(C(=O)Nc3cc(Cl)ccc32)C12CCCCC2 (stereo not drawn) + Cc1c(S(C)(=O)=O)c(-c2cc(F)cc(N3CCN(c4ccc(NS(=O)(=O)c5ccc(NC(CCN6CCC(C(=O)OCCCP(=O)(O)O)CC6)CSc6ccccc6)c(S(=O)(=O)C(F)(F)F)c5)cc4)CC3)c2)c(-c2ccc(Cl)cc2)n1C(C)C
test_target: 317291-083-R-J1-PDC complex spheroid growth
measurement_type: viability, T/C
unit_tag: %
experimental_value: 89.5

====

Tested on: 317291-083-R-J1-PDC complex spheroid growth
measurement_protocol: Anticancer human tumor 317291-083-R-J1-PDC cell line growth inhibition [Asc];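 further: compound exposure lasted seven days after spheroids formed for three days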;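 on viability, T/C: 100% = DMSO vehicle control wells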
condition_details: second compound 1 µM; first compound 0.0316 µM; stronger effect = lower value

molecule: C=C(F)C(=O)N1CCN(c2nc(OCC3CCCN3C)nc3c2CCN(c2cccc4cccc(Cl)c24)C3)CC1CC#N (stereo not drawn) + CNC(C)C(=O)NC1CN(S(=O)(=O)c2cccc(S(=O)(=O)N3CCC4CCC(C(=O)NC(c5ccccc5)c5ccccc5)N4C(=O)C(NC(=O)C(C)NC)C3)c2)CCC2CCC(C(=O)NC(c3ccccc3)c3ccccc3)N2C1=O
test_target: 317291-083-R-J1-PDC complex spheroid growth
viability, T/C, %: 37.9
//
molecule: C#Cc1c(F)ccc2cc(O)cc(-c3ncc4c(N5CC6CCC(C5)N6)nc(OCC56CCCN5CC(F)C6)nc4c3F)c12 (stereo not drawn) + CNC(C)C(=O)NC1CN(S(=O)(=O)c2cccc(S(=O)(=O)N3CCC4CCC(C(=O)NC(c5ccccc5)c5ccccc5)N4C(=O)C(NC(=O)C(C)NC)C3)c2)CCC2CCC(C(=O)NC(c3ccccc3)c3ccccc3)N2C1=O
test_target: 317291-083-R-J1-PDC complex spheroid growth
viability, T/C, %: 31.1
//
molecule: O=C(c1cc(Cc2n[nH]c(=O)c3ccccc23)ccc1F)N1CCN(C(=O)C2CC2)CC1 + Cc1c(S(C)(=O)=O)c(-c2cc(F)cc(N3CCN(c4ccc(NS(=O)(=O)c5ccc(NC(CCN6CCC(C(=O)OCCCP(=O)(O)O)CC6)CSc6ccccc6)c(S(=O)(=O)C(F)(F)F)c5)cc4)CC3)c2)c(-c2ccc(Cl)cc2)n1C(C)C
test_target: 317291-083-R-J1-PDC complex spheroid growth
viability, T/C, %: 73.7

====

Test system: 317291-083-R-J1-PDC complex spheroid growth
measurement_protocol: Anticancer human tumor 317291-083-R-J1-PDC cell line growth inhibition [Asc];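 further: compound exposure lasted seven days after spheroids formed for three days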;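 on viability, T/C: 100% = DMSO vehicle control wells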
condition_details: second compound 10 µM; first compound 0.316 µM; stronger effect = lower value
The entries below come with measured viability, T/C values attached.

molecule: CNC(C)C(=O)NC1CN(S(=O)(=O)c2cccc(S(=O)(=O)N3CCC4CCC(C(=O)NC(c5ccccc5)c5ccccc5)N4C(=O)C(NC(=O)C(C)NC)C3)c2)CCC2CCC(C(=O)NC(c3ccccc3)c3ccccc3)N2C1=O (configuration not stated) + Cc1c(S(C)(=O)=O)c(-c2cc(F)cc(N3CCN(c4ccc(NS(=O)(=O)c5ccc(NC(CCN6CCC(C(=O)OCCCP(=O)(O)O)CC6)CSc6ccccc6)c(S(=O)(=O)C(F)(F)F)c5)cc4)CC3)c2)c(-c2ccc(Cl)cc2)n1C(C)C
unit_tag: %
viability, T/C: 34.9
//
molecule: C=CC(=O)N1CCN(c2nc(=O)n(-c3c(C)ccnc3C(C)C)c3nc(-c4c(O)cccc4F)c(F)cc23)C(C)C1 (configuration not stated) + Cc1c(S(C)(=O)=O)c(-c2cc(F)cc(N3CCN(c4ccc(NS(=O)(=O)c5ccc(NC(CCN6CCC(C(=O)OCCCP(=O)(O)O)CC6)CSc6ccccc6)c(S(=O)(=O)C(F)(F)F)c5)cc4)CC3)c2)c(-c2ccc(Cl)cc2)n1C(C)C
unit_tag: %
viability, T/C: 93.2

====

Test system: 317291-083-R-J1-PDC complex spheroid growth
measurement_protocol: Anticancer human tumor 317291-083-R-J1-PDC cell line growth inhibition [Asc];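 further: compound exposure lasted seven days after spheroids formed for three days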
condition_details: curve of first compound; second compound 10 µM
Description: Multicellular complex tumor spheroid response to apoptosis pathway targeting inhibitors Alrizomadlin, Pelcitoclax, and Dasminapant in combination with a variety of drugs and investigational agents in selected tumor cell lines […] Compounds. […] If the clinical Cmax for an agent had not been determined, the highest concentration tested was 10 microM. […]
The entries below come with measured IC50 values attached.
measurement_type: IC50 (nM)

compound: NC(=O)C(=Cn1cnc(-c2cc(C(F)(F)F)cc(C(F)(F)F)c2)n1)c1cncnc1 + Cc1c(S(C)(=O)=O)c(-c2cc(F)cc(N3CCN(c4ccc(NS(=O)(=O)c5ccc(NC(CCN6CCC(C(=O)OCCCP(=O)(O)O)CC6)CSc6ccccc6)c(S(=O)(=O)C(F)(F)F)c5)cc4)CC3)c2)c(-c2ccc(Cl)cc2)n1C(C)C
measurement_type: IC50
unit_tag: nM
experimental_value: 24.2

compound: COc1c(OCCCN2CCOCC2)ccc2c3n(c(=NC(=O)c4cnc(N)nc4)nc12)CCN3 + Cc1c(S(C)(=O)=O)c(-c2cc(F)cc(N3CCN(c4ccc(NS(=O)(=O)c5ccc(NC(CCN6CCC(C(=O)OCCCP(=O)(O)O)CC6)CSc6ccccc6)c(S(=O)(=O)C(F)(F)F)c5)cc4)CC3)c2)c(-c2ccc(Cl)cc2)n1C(C)C
measurement_type: IC50
unit_tag: nM
experimental_value: 95.3

compound: Cc1nc(N2CCC3(CC2)COC(C)C3N)c(CO)nc1Sc1ccnc(N)c1Cl (stereo not drawn) + Cc1c(S(C)(=O)=O)c(-c2cc(F)cc(N3CCN(c4ccc(NS(=O)(=O)c5ccc(NC(CCN6CCC(C(=O)OCCCP(=O)(O)O)CC6)CSc6ccccc6)c(S(=O)(=O)C(F)(F)F)c5)cc4)CC3)c2)c(-c2ccc(Cl)cc2)n1C(C)C
measurement_type: IC50
unit_tag: nM
experimental_value: 992
